Parameter activity at 1 µM: see the listing below.
- System: CEM, a Human T-type lymphoblast tumor cell line
- test-protocol: Cell growth inhibition of CEM cells by D-nucleosides with or without L-nucleosides
- Assay type: cell-based
- condition-context: Homo sapiens, CCRF-CEM, 96 h, single agent, 1.0 uM, day 4; read-out: Day 4 Cell Growth - % of Control
value-kind: activity at 1 µM

# compound, data-value
data = [
    ("Nc1nc(=O)n([C@@H]2CS[C@H](CO)O2)cc1F [L(-)FTC]", "87%"),
    ("Nc1ccn([C@@H]2CS[C@H](CO)O2)c(=O)n1 [L(-)SddC, β-L-2',3'-dideoxy-3'-thiacytidine]", "89%"),
    ("Nc1nc(=O)n(C2CCC(CO)O2)cc1F (single isomer, unassigned)", "84%"),
]

Origin of measurements: patent US5756478A
